Where these numbers come from: patent US20230192860A1

// reported pKd per item
target: T1, hVISTA-ECD 6-His tag (human, UniProt Q9H7M9 33-193); experiment: SPR 37 C, Ab on Protein A, pH 7.4
T1 construct: also called monovalent hVISTA-ECD; human VISTA
T1 sequence (Q9H7M9 other isoform, or with tags, fused parts or gaps limits assumed): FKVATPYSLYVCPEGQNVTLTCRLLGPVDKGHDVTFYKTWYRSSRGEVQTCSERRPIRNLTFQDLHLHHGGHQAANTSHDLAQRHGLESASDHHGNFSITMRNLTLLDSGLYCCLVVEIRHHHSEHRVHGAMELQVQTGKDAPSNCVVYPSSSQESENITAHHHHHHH
pKd: −log10 of the molar value.

[
  {
    "BINDER": "P1-077851 (P1-068744 E100S E102Y) (antibody, V domains shown) VH: QVQLVESGGGVVQPGRSLRLSCAASGFTFSEYAMHWVRQAPGKGLEWVAHIWYDGSNKYEADSVKGRFTISRDNSKNTLYLQMNSLRAEDTAVYYCARDSGFYSSYYFDYWGQGTLVTVSS VL: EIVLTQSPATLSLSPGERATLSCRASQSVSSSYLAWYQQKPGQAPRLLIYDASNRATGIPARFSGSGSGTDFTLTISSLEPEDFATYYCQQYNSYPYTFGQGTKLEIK",
    "pKd": 5.66
  },
  {
    "BINDER": "P1-077841 (P1-068744 E100S) (antibody, V domains shown) VH: QVQLVESGGGVVQPGRSLRLSCAASGFTFSEYAMHWVRQAPGKGLEWVAHIWYDGSNKYEADSVKGRFTISRDNSKNTLYLQMNSLRAEDTAVYYCARDSGFYSSYYFDEWGQGTLVTVSS VL: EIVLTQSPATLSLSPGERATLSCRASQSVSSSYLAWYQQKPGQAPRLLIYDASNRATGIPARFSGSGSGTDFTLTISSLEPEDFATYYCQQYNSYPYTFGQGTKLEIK",
    "pKd": 6.04
  },
  {
    "BINDER": "P1-077839 (P1-068744 E59Y) (antibody, V domains shown) VH: QVQLVESGGGVVQPGRSLRLSCAASGFTFSEYAMHWVRQAPGKGLEWVAHIWYDGSNKYYADSVKGRFTISRDNSKNTLYLQMNSLRAEDTAVYYCARDSGFYESYYFDEWGQGTLVTVSS VL: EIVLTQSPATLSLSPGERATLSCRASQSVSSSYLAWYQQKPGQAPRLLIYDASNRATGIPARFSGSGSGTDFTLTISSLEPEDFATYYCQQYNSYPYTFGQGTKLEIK",
    "pKd": 5.89
  },
  {
    "BINDER": "P1-077835 (P1-068744 E31S) (antibody, V domains shown) VH: QVQLVESGGGVVQPGRSLRLSCAASGFTFSSYAMHWVRQAPGKGLEWVAHIWYDGSNKYEADSVKGRFTISRDNSKNTLYLQMNSLRAEDTAVYYCARDSGFYESYYFDEWGQGTLVTVSS VL: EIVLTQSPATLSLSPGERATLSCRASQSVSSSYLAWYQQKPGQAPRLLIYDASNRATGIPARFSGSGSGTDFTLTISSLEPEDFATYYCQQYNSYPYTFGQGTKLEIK",
    "pKd": 6.18
  },
  {
    "BINDER": "P1-077859 (P1-068744 H50I E100S) (antibody, V domains shown) VH: QVQLVESGGGVVQPGRSLRLSCAASGFTFSEYAMHWVRQAPGKGLEWVAIIWYDGSNKYEADSVKGRFTISRDNSKNTLYLQMNSLRAEDTAVYYCARDSGFYSSYYFDEWGQGTLVTVSS VL: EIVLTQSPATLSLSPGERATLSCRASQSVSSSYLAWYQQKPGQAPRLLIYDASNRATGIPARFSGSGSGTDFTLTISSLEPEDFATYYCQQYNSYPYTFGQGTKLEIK",
    "pKd": 8.02
  }
]
